Entry source: the PolyMetriX glass transition set

VALUE_KIND: glass transition temperature (°C)
Use °C as the unit, but write only the number.

Solved entries:
(Q) Give a short answer stating reported glass transition temperature for *Oc1ccc(S(=O)(=O)c2ccc(-c3ccc(-c4ccc(S(=O)(=O)c5ccc(Oc6ccc(-c7ccc(*)cc7)cc6)cc5)cc4)cc3)cc2)cc1 (repeat unit) .
(A) 264.00

(Q) Retrieve glass transition temperature measured for */C=[CH]/[Ge]([*])([c]1ccccc1)[c]1ccccc1 (repeat unit) and print it.
(A) -36.00

(Q) Could you please provide reported glass transition temperature for */C=C/CCCCCCCCCC(Cl)CCCCCCCCC* (repeat unit) ? Thanks!
(A) -37.00

(Q) Identify glass transition temperature associated with the molecule *CC(*)c1ccc(C(=O)c2ccccc2)cc1 (repeat unit)
(A) 98.00

(Q) Please report glass transition temperature for the following molecule: *O[Si](C)(C)COC(=O)CCCCCCCCC(=O)Oc1ccc(S(=O)(=O)c2ccc(Oc3ccc(/C=C4\CC/C(=C\c5ccc(Oc6ccc(S(=O)(=O)c7ccc(OC(=O)CCCCCCCCC(=O)OC[Si](*)(C)C)cc7)cc6)cc5)C4=O)cc3)cc2)cc1 (repeat unit)
(A) 73.00

(Q) Please list glass transition temperature recorded for the molecule *Nc1ccc(-c2ccc(NC(=O)c3cccc(C(*)=O)c3)cc2)cc1 (repeat unit)
(A) 294.00

New cases:
(Q) Supply glass transition temperature value. Item: *Oc1ccc(CC(NC(=O)CCc2ccc(OC(=O)COCC(*)=O)cc2)C(=O)OC)cc1 (repeat unit)
(A) 82.00

(Q) Using known records, supply glass transition temperature for *c1ccc(Oc2ccccc2Oc2ccc(-n3c(=O)c4cc5c(=O)n(*)c(=O)c5cc4c3=O)cc2C(F)(F)F)c(C(F)(F)F)c1 (repeat unit)
(A) 277.00

(Q) Using the record for *CC(OC(=O)OCC)C(COC(=O)O*)OC(=O)OCC (repeat unit) , state its measured glass transition temperature.
(A) 49.80

(Q) Item *CCN(*)C(=O)CCCCC (repeat unit) : provide glass transition temperature
(A) 7.00

(Q) For the molecule *C(=O)c1ccc2c(c1)C(=O)N(c1ccc(OCCOCCOCCOc3ccc(N4C(=O)c5ccc(*)cc5C4=O)cc3)cc1)C2=O (repeat unit) , report glass transition temperature.
(A) 200.00

(Q) Provide one value: measured glass transition temperature of *Oc1ccc(S(=O)(=O)c2ccc(Oc3ccc4c(=O)n5c6cc(-c7ccc8c(c7)nc7c9ccc(*)c%10cccc(c(=O)n87)c%109)ccc6nc5c5cccc3c45)cc2)cc1 (repeat unit)
(A) 415.00

(Q) Find the measured glass transition temperature of *C[Si](*)(C)c1ccccc1 (repeat unit) and report it.
(A) 28.00

(Q) Could you please provide reported glass transition temperature for *CCCCCCN(C)c1ccc(C(=O)c2ccc(N(*)C)cc2)cc1 (repeat unit) ? Thanks!
(A) 75.50

(Q) Identify measured glass transition temperature associated with *Oc1ccc(C2(c3ccc(Oc4ccc(C(=O)c5ccccc5-c5ccccc5C(=O)c5ccc(*)cc5)cc4)cc3)c3ccccc3-c3ccccc32)cc1 (repeat unit)
(A) 229.00

(Q) Give recorded glass transition temperature. *CC(*)OC(=O)c1ccc([Si](C)(C)C)cc1 (repeat unit)
(A) 130.50

(Q) State its glass transition temperature: *c1ccc(C2(c3ccc(N4C(=O)C(c5ccccc5)=C(c5ccc(C6=C(c7ccccc7)C(=O)N(*)C6=O)cc5)C4=O)cc3)c3ccccc3-c3ccccc32)cc1 (repeat unit)
(A) 340.00

(Q) Fill in glass transition temperature for record *CC(*)c1ccc(-c2ccccc2)cc1 (repeat unit) [Poly(p-phenyl styrene) ]
(A) 138

(Q) Report glass transition temperature for *CCCC1(CCCNC(=O)c2ccccc2-c2ccccc2C(=O)N*)c2ccccc2-c2ccccc21 (repeat unit)
(A) 165.00

(Q) Look up glass transition temperature of *Nc1ccc(NC(=O)CCCCC(*)=O)cc1 (repeat unit) and report it.
(A) 133.00

(Q) Tell me its glass transition temperature given *c1ccc(Oc2ccc(C(C)(C)c3ccc(Oc4ccc(-c5nnc(*)n5-c5ccccc5)cc4)cc3)cc2)cc1 (repeat unit) as the entry.
(A) 207.00

(Q) Find the measured glass transition temperature of *C(=O)Nc1cccc(S(=O)(=O)c2cccc(NC(=O)c3ccc4c(c3)C(=O)N(c3ccc(-c5sc(-c6ccc(N7C(=O)c8ccc(*)cc8C7=O)cc6)c(-c6ccccc6)c5-c5ccccc5)cc3)C4=O)c2)c1 (repeat unit) and report it.
(A) 320.00

(Q) Kindly indicate its recorded glass transition temperature. Item: *CCCCSSCCCCOCO* (repeat unit)
(A) -76.00

(Q) Provide glass transition temperature value for the following molecule: *CC(*)c1ccc(Cl)cc1 (repeat unit) [Poly(4-chlorostyrene)]
(A) 119.92

(Q) Specify glass transition temperature for *CC(*)OC(=O)C1(C)CCCCC1 (repeat unit) and stop.
(A) 86.00

(Q) Please report glass transition temperature for the following molecule: *C(=O)Nc1nc(NC(=O)c2ccc3c(c2)C(=O)N(c2ccc(Oc4cccc5c(N6C(=O)c7ccc(*)cc7C6=O)cccc45)cc2)C3=O)nc(-c2ccccc2)n1 (repeat unit)
(A) 291.00
